Attribution: paper PMC7967119

System: A549 (lung cancer) cells harboring EGFR^WT
Assay procedure: MTT antiproliferative assay, A549
Experimental setup: Homo sapiens, A549, 48 h, read-out: IC50 (μM) ± SEM, A549 (Lung Cancer)
Kindly supply the reported IC50 values for the records listed here.
Please report the result as a number followed by the unit.

Reported IC50 for N#Cc1nc2n(c1/N=C/c1ccccc1F)-c1ccccc1NC2c1ccccc1F (stereo not shown) [Compound 7h] was 4.09 µM

Reported IC50 for C/C(=N\c1c(C#N)nc2n1-c1ccccc1NC2(C)c1ccc(Cl)cc1)c1ccc(Cl)cc1 (stereo not shown) [Compound 9a] was 6.63 µM

Reported IC50 for COc1ccc(/C(C)=N/c2c(C#N)nc3n2-c2ccccc2NC3(C)c2ccc(OC)c(OC)c2)cc1OC (stereo not shown) [Compound 9c] was 12.1 µM

Reported IC50 for N#Cc1nc2n(c1/N=C/c1ccc([N+](=O)[O-])cc1)-c1ccccc1NC2c1ccc([N+](=O)[O-])cc1 (stereo not shown) [Compound 7j] was 8.75 µM

----------
Kindly supply the reported IC50 values for the records listed here.
Experimental system: EGFR^WT (Homo sapiens)
Sequence (P00533 25-1210): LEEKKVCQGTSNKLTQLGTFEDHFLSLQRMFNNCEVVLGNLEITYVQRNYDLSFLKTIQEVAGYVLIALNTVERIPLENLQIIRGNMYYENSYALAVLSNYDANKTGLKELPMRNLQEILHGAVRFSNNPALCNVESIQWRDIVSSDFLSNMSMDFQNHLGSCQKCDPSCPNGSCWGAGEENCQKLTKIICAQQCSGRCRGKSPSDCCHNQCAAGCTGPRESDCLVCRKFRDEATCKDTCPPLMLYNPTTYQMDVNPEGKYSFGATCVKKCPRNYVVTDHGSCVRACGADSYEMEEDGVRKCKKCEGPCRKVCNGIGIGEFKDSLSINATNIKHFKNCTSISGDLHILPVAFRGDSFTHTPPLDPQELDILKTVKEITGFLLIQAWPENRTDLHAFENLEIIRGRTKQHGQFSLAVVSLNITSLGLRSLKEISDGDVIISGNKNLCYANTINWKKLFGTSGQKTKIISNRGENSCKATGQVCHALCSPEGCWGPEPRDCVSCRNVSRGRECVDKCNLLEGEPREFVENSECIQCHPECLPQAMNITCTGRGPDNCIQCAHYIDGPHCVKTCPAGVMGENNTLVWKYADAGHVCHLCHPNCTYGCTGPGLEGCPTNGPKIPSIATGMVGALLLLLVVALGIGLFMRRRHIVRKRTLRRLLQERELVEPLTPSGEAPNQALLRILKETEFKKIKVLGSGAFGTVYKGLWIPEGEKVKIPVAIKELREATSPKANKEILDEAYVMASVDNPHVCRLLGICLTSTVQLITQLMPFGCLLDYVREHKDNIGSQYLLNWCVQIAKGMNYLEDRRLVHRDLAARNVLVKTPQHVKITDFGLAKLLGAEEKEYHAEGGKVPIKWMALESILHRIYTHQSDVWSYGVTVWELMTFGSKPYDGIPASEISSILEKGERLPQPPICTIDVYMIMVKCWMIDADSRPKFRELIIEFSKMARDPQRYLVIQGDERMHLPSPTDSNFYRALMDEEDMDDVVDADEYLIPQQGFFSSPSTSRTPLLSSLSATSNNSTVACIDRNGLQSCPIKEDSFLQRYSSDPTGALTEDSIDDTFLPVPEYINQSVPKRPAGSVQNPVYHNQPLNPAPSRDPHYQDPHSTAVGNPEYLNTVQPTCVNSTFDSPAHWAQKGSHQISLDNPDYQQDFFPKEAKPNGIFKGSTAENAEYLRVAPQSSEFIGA
Assay procedure: EGFR inhibitory assay (Z-lyte kinase assay kit, Tyr 4 peptide, FRET-based)
Format: biochemical
Experimental setup: EGFR wild type; tested at 100, 250, 500 and 720 nM; triplicate; read-out: EGFR Inhibition IC50 (nM) ± SEM
Protocol: The test compounds were analyzed for EGFR inhibitory potential using z-lyte kinase assay kit–tyr 4 peptide assay kit (catalogue no. PV3193; Thermofisher, Mumbai, Maharashtra, India). […] The extent of phosphorylation was calculated by the following formula (Equation (1)):(1) % phosphorylation =1− (Emission ratio× F100%)− C100%/(C0%−C100%) + [Emission ratio (F100%−F0%)] where C0% = Average coumarin emission signal of the 100% Phos. […]
Write the number in nM without appending the unit.

Reported IC50 for N#Cc1nc2c(-c3cccc([N+](=O)[O-])c3)nc3ccccc3n2c1N was 244

Reported IC50 for COc1ccc(/C(C)=N/c2c(C#N)nc3n2-c2ccccc2NC3(C)c2ccc(OC)c(OC)c2)cc1OC (centres unmarked) was 222

Reported IC50 for N#Cc1nc2n(c1/N=C/c1ccco1)-c1ccccc1NC2c1ccco1 (centres unmarked) was 232

Reported IC50 for N#Cc1nc2n(c1N)-c1ccccc1NC2(C(=O)c1ccccc1)c1ccccc1 (centres unmarked) [Compound 10c] was 716

Reported IC50 for C/C(=N\c1c(C#N)nc2n1-c1ccccc1NC2(C)c1ccc(Cl)cc1)c1ccc(Cl)cc1 (centres unmarked) was 223

Reported IC50 for N#Cc1nc2n(c1/N=C/c1ccccc1Br)-c1ccccc1NC2c1ccccc1Br (centres unmarked) was 666

Reported IC50 for COc1cc(/C=N/c2c(C#N)nc3c(-c4cc(OC)c(OC)c(OC)c4)nc4ccccc4n23)cc(OC)c1OC was 211

Reported IC50 for N#Cc1nc2n(c1N)-c1ccccc1N1C(=O)CCC21 (centres unmarked) was 669

Reported IC50 for N#Cc1nc2n(c1/N=C/c1ccc(O)c(O)c1)-c1ccccc1NC2c1ccc(O)c(O)c1 (centres unmarked) was 620

Reported IC50 for COc1ccc(OC)c(/C=N/c2c(C#N)nc3n2-c2ccccc2NC3c2cc(OC)ccc2OC)c1 (centres unmarked) was 653

Reported IC50 for CC1(c2cccc([N+](=O)[O-])c2)Nc2ccccc2-n2c1nc(C#N)c2N (centres unmarked) [Compound 10a] was 247

Reported IC50 for COc1cc(/C=N/c2c(C#N)nc3n2-c2ccccc2NC3c2cc(OC)c(OC)c(OC)c2)cc(OC)c1OC (centres unmarked) was 613

Reported IC50 for C/C(=N\c1c(C#N)nc2n1-c1ccccc1NC2(C)c1cccs1)c1cccs1 (centres unmarked) was 245
